Every entry's value here was drawn from ChEMBL document CHEMBL1201862.

Each entry below carries its recorded GI50.
Tested on: SN12C
Assay: NCI tumour cell line growth inhibition, 48 h
The source made the active and inactive calls. Rule as the data show it: active = GI50 up to about 1.1 µM and inactive = higher.
Measurement Type: GI50

Compound	Assay Value
Cc1cc(O)nc(CNC(=O)c2cccc3ccccc23)n1	> 100 µM (inactive)
COc1cc(C(=O)Nc2cccc3ccccc23)c(Br)c(OC)c1OC	> 100 µM (inactive)
[N-]=[N+]=NC(c1cn(C2CC(O)C(CO)O2)c(=O)[nH]c1=O)C(Cl)Br (stereo not given)	> 100 µM (inactive)
O=C(OCC1OC(c2nn[nH]n2)C(OC(=O)c2ccccc2)C1OC(=O)c1ccccc1)c1ccccc1 (stereo not given)	> 100 µM (inactive)
CCCN(C(=O)c1ccccc1)C(C#N)c1ccc(C(C#N)N(CCC)C(=O)c2ccccc2)cc1 (stereo not given)	> 100 µM (inactive)
CCc1ccccc1NC(=O)C(=O)CC(=O)c1sc(Nc2ccccc2)nc1C	> 100 µM (inactive)
CCOC(=O)/C(C(=O)Nc1cccc(C(F)(F)F)c1)=C(/N)N1CCCC1	41.9 µM (inactive)
N[C@@H](CSCSC[C@H](N)C(=O)O)C(=O)O	> 225 µM (inactive)
CC(C)=Cc1cc(C(=O)NCCNC(=O)c2cc(C=C(C)C)nc(NC#N)n2)nc(NC#N)n1	> 100 µM (inactive)
CSc1nc2nc(C(O)C(O)C(O)CO)cnc2c(=O)[nH]1 (stereo not given)	> 100 µM (inactive)
CC1(C)CC[C@]2(C)CC[C@]3(C)C(=CC[C@@H]4[C@@]5(C)CCC(=O)C(C)(C)[C@@H]5[C@H](O)C[C@]43C)[C@@H]2C1	15.1 µM (inactive)
COC(=O)C1(Cc2ccccc2)Cc2cc3c(cc2C1)CCC3	42.3 µM (inactive)
CN1CCN(c2n[nH]c(=O)c3c2nnn3C2CCCCC2)CC1	> 100 µM (inactive)
CCOC(=O)N1CCC(=O)C[C@@H]1C/C=C/P1(=O)O[C@H](c2ccccc2)C(C)N1C(C)C (stereo not given in full)	> 100 µM (inactive)
Nc1cc(S(=O)(=O)O)cc2cc(S(=O)(=O)O)c(/N=N/c3ccc(-c4ccc(/N=N/c5c(S(=O)(=O)O)cc6cc(S(=O)(=O)O)cc(N)c6c5O)cc4)cc3)c(O)c12	> 100 µM (inactive)
